- Test system: 786-0 renal
- METHOD NOTES: NCI-60 one-dose screen, 48 h (100 = growth as untreated, 0 = no growth, -100 = all killed)
- EXPERIMENTAL CONDITIONS: 10 µM unless noted
About 83,000 compounds went through this panel and 20% of them were active in at least one assay; those are over-represented in the sample as a whole. Activity calls are given as the source filed them. How the source made its calls: active means growth percent below 10; inactive means the rest.
Reported growth values for a set of compounds

// solved cases for growth follow
COMPOUND	RESULT
N#Cc1ccc(N2Cc3cc(Cl)ccc3OC3=C2C(=O)N(Cc2ccccc2)C3=O)cc1	-82.4% (active)
c1ccc2c3c([nH]c2c1)C(c1ccc(C2NCCc4c2[nH]c2ccccc42)cc1)NCC3 (stereo unspecified)	-68.1% (active)
COc1cc(NC(=O)Nc2cnc(Nc3ccc(N4CCOCC4)cc3)nc2Oc2ccc(F)cc2)cc(OC)c1	38.8% (inactive)

# input for lookup
Prompt: GET /values?readout=growth&item= `COc1ccc(-c2[nH]c3ccccc3c2C=C(C#N)C#N)cc1`
Response: 14.9% (inactive)

====

- Test system: TK-10 renal
- METHOD NOTES: NCI-60 one-dose screen, 48 h (100 = growth as untreated, 0 = no growth, -100 = all killed)
- EXPERIMENTAL CONDITIONS: 10 µM unless noted
About 83,000 compounds went through this panel and 20% of them were active in at least one assay; those are over-represented in the sample as a whole. Calls of active or inactive are those of the source. The calls were made as follows: active = growth percent below 10; inactive = the rest.
ATTRIBUTE MEASURED: growth

// solved cases for growth follow
COMPOUND	growth
COc1cc(NC(=O)c2cc(O)c(C/C=C(\C)CCC=C(C)C)c(O)c2)cc2c1O[C@]1(C)CC[C@@H](O)C(C)(C)[C@H]1C2	56.1% (inactive)
NC(N)=NC(N)=Nc1cc2ccccc2c2ccccc12	20.8% (inactive)
CCC1S/C(=N\N=C(/C)c2ccc[nH]2)N(c2ccccc2)C1=O (stereo unspecified)	83.5% (inactive)
CC1(C)[C@@H](O)CC[C@]2(C)[C@H]3CC[C@@H]4[C@H]5[C@H](c6cn(-c7ccccc7)nn6)CC[C@]5(CO)CC[C@@]4(C)[C@]3(C)CC[C@@H]12	98.4% (inactive)
Cc1c(C(=O)Nc2nc3ccccc3[nH]2)cnn1-c1ccccn1	98.3% (inactive)

# input for lookup
Prompt: GET /values?readout=growth&item= `CC[C@]12C=CCN3CC[C@@]4(c5ccc(OC)cc5N(C)[C@H]4[C@@](O)(C(=O)OC)[C@@H]1OC(=O)CCC(=O)O[C@H]1CC[C@H]4[C@@H]5CC[C@H]6CC(=O)CC[C@]6(C)[C@H]5CC[C@]14C)[C@@H]32`
Response: 21.2% (inactive)

====

Reported growth values for a set of compounds
- Test system: UO-31 renal
- METHOD NOTES: NCI-60 one-dose screen, 48 h (100 = growth as untreated, 0 = no growth, -100 = all killed)
- EXPERIMENTAL CONDITIONS: 10 µM unless noted
This is part of a sample that, as a whole, favours compounds with a hit. Of some 83,000 tested, about 20% had one in any assay.
Please reply with the bare figure in % and do not write the unit itself.

COMPOUND	ATTRIBUTE MEASURED	NUMERIC RESULT
COc1ccc2nc3c(n2c1)C(=O)C(=O)c1ccccc1-3	growth	-64.4
COc1ccc(Cc2nc(C#N)c(N3CCN(c4ccc(F)cc4)CC3)o2)cc1	growth	81.7
CC(=O)Nc1c(C(=O)Nc2ccccc2)sc2nc3c(cc12)C(OC(C)=O)CCC3 (stereo unspecified)	growth	72.9
CCOC(=O)c1c(C)nc2c(c1N)/C(=C/c1cccs1)C(=O)N2c1ccc(OC)cc1	growth	16.5
CCOC(=O)c1cnn(-c2nc(-c3ccc(F)cc3)c(C#N)c(N3CCOCC3)n2)c1N	growth	74.1

Prompt: GET /values?readout=growth&item= `CCOC(=O)NCCc1nc2c([nH]1)c(=O)n(C)c(=O)n2C`
Response: 83.3
